- experimental.system: C-C chemokine receptor type 1 (Homo sapiens, UniProt P32246)
- Sequence (P32246 whole entry): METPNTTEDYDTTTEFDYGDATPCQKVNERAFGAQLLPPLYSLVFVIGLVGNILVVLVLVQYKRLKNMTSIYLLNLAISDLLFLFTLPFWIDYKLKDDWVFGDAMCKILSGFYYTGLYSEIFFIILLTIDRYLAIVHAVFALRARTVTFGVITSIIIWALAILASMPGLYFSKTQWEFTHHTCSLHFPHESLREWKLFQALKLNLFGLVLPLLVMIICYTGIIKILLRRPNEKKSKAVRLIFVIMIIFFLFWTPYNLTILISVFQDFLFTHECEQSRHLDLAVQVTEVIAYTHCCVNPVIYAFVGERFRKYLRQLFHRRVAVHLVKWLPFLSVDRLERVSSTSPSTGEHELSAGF
- test.protocol: Inhibitory activity against [125I]-MIP-1 alpha binding to human CCR1 receptors.
pIC50: −log10 of the molar value.
endpoint: pIC50

INSERT INTO assay_data (mol_smiles, result_value) VALUES
  ('O=C(NC1CCN(CC2CCCCCCC2)CC1)C1c2cc(Cl)ccc2Oc2ccc(Cl)cc21', '< 5.00');

Please report the recorded pIC50 for O=C(NC1CCN(CC2CCCCCCC2)CC1)c1c2ccccc2cc2ccccc12 .
< 5.00

Record request: pIC50 value, item O=C(NC1CCN(Cc2ccccc2)CC1)C1c2ccccc2Oc2ccccc21
< 5.00

Please give the measured pIC50 for this molecule: O=C(NC1CCN(Cc2ccc3ccccc3c2)CC1)C1c2ccccc2Oc2ccccc21
< 5.00
